Measured pKi (Nitric oxide synthase, inducible (Homo sapiens, UniProt P35228))
pKi: −log10 of the molar value.

compound: N=C(N)NOCC[C@H](N)C(=O)O
reported_relation: =
pKi: 3.66
--
compound: N=C(N)CCCCC(N)C(=O)O (configuration not stated)
reported_relation: <
pKi: 2.52
